- PROTOCOL: chemical genetic growth profiling, strain panel (AID 1159580);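 further: tested at 20 µM; growth read once vehicle control cultures reached saturation at 30 °C; 1 = growth at the plate median or of vehicle wells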
- PROTOCOL CONDITIONS: S. cerevisiae deletion strains, growth OD, locus YDR137W, strain rgp1, stronger effect = lower value
The whole screen tested about 5,500 compounds, of which about 2,000 (36%) were called active. About 18% were inconclusive and are not listed. The list shows a part of the results.
MEASURED PROPERTY: normalized growth
Please reply with the value in numeric form only.

Reference set (2 entries):
Any idea what normalized growth was measured for CNC[C@@H](O)c1ccc(O)c(O)c1 ?
1.03

Which normalized growth is listed for NC[C@H](O)c1ccc(O)c(O)c1 ?
1.06

---
Would you mind telling me what normalized growth value was observed for Nc1ccc(C(=O)NCC(=O)O)cc1 ?
1.02

---

- PROTOCOL: chemical genetic growth profiling, strain panel (AID 1159580)
- PROTOCOL CONDITIONS: S. cerevisiae deletion strains, growth OD, locus YML016C, strain PPZ1, stronger effect = lower value
In all, about 5,500 compounds went through this assay and about 2,000 (36%) were called active. Not shown: some 18% with an inconclusive outcome. Some of the results follow.
Each entry below carries its reported normalized growth.
Just the number.

// query normalized growth value for entry CC(=O)O[C@@H]1CC2C(C)(C)C(=O)CC[C@]2(C)C2CC[C@]3(C)C(=CC(=O)O[C@H]3c3ccoc3)[C@@]21C (stereo partly specified)
0.978

normalized growth lookup needed for CC(=O)Oc1ccc(Cl)c2cccnc12 , thanks.
0.0485

# input compound: C=C[C@](C)(O)CCC=C(C)C ; wanted: its normalized growth
1.01

Any idea what normalized growth was measured for C=CC(C1=CC(=O)C(OC)=CC1=O)c1ccc(O)cc1 (stereo unspecified) ?
0.976

Need normalized growth, item COC(=O)C[C@H]1C(C)(C)C(=O)[C@@H]2CC3=C4CC(=O)O[C@@H](c5ccoc5)[C@]4(C)CCC3[C@@]1(C)C2=O (stereo partly specified)
0.998

Any idea what its normalized growth is? The compound is C=C[C@@H](C1=CC(=O)C(OC)=C(OC)C1=O)c1ccccc1
0.292

Request the reported normalized growth associated with Oc1c(I)cc(I)c2cccnc12
0.0635

Query (compound): NCC(CC(=O)O)c1ccc(Cl)s1 (stereo unspecified) ; field requested: normalized growth
0.984

More entries:
What value of normalized growth has been reported for the following compound? C=CC(C1=CC(=O)C(OC)=CC1=O)c1ccccc1 (stereo unspecified)
0.959

Which value of normalized growth has been reported for O=C(O)/C=C/C=C/c1ccccc1 in the records?
0.994

Which value of normalized growth has been reported for C=C(CC)C(=O)c1ccc(OCC(=O)O)c(Cl)c1Cl in the records?
0.982

---

- PROTOCOL: chemical genetic growth profiling, strain panel (AID 1159580)
- PROTOCOL CONDITIONS: S. cerevisiae deletion strains, growth OD, locus YBR279W, strain paf1, stronger effect = lower value
The campaign covered roughly 5,500 compounds. About 2,000 (36%) were called active. Inconclusive results (about 18%) are left out. The list shows a part of the results.
Recorded normalized growth, one value per entry.
Answer with the value's number alone.

Before answering, review these 2 worked examples.
Consider the compound shown here: CCN(CC)CCOc1ccc2c(c1)C(=O)c1cc(OCCN(CC)CC)ccc1-2 What is its recorded normalized growth?
0.981

Look up normalized growth: O=C1C=CC2=C3c4cc(O)c(O)cc4CC3(O)COC2=C1O (configuration not stated)
0.964

Others:
Item under review: CO[C@H]1/C=C/O[C@@]2(C)Oc3c(C)c(O)c4c(O)c(c(/C=N/N5CCN(C)CC5)c(O)c4c3C2=O)NC(=O)/C(C)=C\C=C\C(C)[C@H](O)[C@@H](C)[C@@H](O)[C@@H](C)[C@@H](OC(C)=O)[C@@H]1C (some centres not stated) . Reported normalized growth?
1

Entry O=C(O[C@@H]1Cc2c(O)cc(O)cc2O[C@@H]1c1cc(O)c(O)c(O)c1-c1c([C@H]2Oc3cc(O)cc(O)c3C[C@H]2O)cc(O)c(O)c1O)c1cc(O)c(O)c(O)c1 has what normalized growth?
0.978

Which measured normalized growth value corresponds to CC(=O)Nc1cc([As](=O)(O)O)ccc1O ?
0.999

---

- PROTOCOL: chemical genetic growth profiling, strain panel (AID 1159580);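 further: tested at 20 µM; growth read once vehicle control cultures reached saturation at 30 °C; 1 = growth at the plate median or of vehicle wells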
- PROTOCOL CONDITIONS: S. cerevisiae deletion strains, growth OD, locus YIL073C, strain SPO22
The whole screen tested about 5,500 compounds, of which about 2,000 (36%) were called active. Roughly 18% stayed inconclusive and do not appear here. Rule as the data show it: active = normalized growth mostly below about 0.91 (no sharp cut-off); inconclusive = no clear call, values can overlap the other calls; inactive = mostly above about 0.92. Some of the results follow.
Thanks in advance; please answer with one of these: 1 (active), -1 (inactive)

Write down the call the test reported for this compound. Item: CC(=O)Nc1cc([As](=O)(O)O)ccc1O
-1

Recorded test call requested for N[C@@H](Cc1ccc(O)c(O)c1)C(=O)O
-1

Name the outcome recorded for C=C[C@](C)(O)CCC=C(C)C in the assay.
-1

Entry CC(C)=CCC[C@](C)(O)C1CC=C(C)CC1 (some centres not stated) : call = ?
-1

New cases:
// outcome(item) with item = C[C@H](N)[C@H](O)c1ccc(O)c(O)c1
-1

Could you please tell me the result logged for O=C(O)c1ccccc1Nc1cccc(C(F)(F)F)c1 in this assay?
-1

Hi team, can someone confirm the assay call for O=[N+]([O-])c1ccc(O)c([N+](=O)[O-])c1 ?
-1

Would you mind telling me which call this test gave CC(C)(C)NC[C@@H](O)COc1nsnc1N1CCOCC1 ?
-1

GET /call?item= COc1cc2c(c(OC)c1OC)-c1ccc(O)c(=O)cc1[C@@H](NC(C)=O)CC2 returns the recorded outcome of this test.
1

Fill in: this test's call for Cc1occc(=O)c1O is ___
-1

Test call, this compound: O=C(CCCCCCCCCCCCC1CCCC1)Nc1ccc(S(=O)(=O)c2ccc(NC(=O)CCCCCCCCCCCCC3CCCC3)cc2)cc1
-1

Per the records of this test, what outcome belongs to O=[N+]([O-])c1cc([As](=O)(O)O)ccc1O ?
-1

---

- PROTOCOL: chemical genetic growth profiling, strain panel (AID 1159580);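 further: tested at 20 µM; growth read once vehicle control cultures reached saturation at 30 °C; 1 = growth at the plate median or of vehicle wells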
- PROTOCOL CONDITIONS: S. cerevisiae deletion strains, growth OD, locus YMR205C, strain PFK2, stronger effect = lower value
Screen size: about 5,500 compounds; about 2,000 (36%) were called active. Not shown: some 18% with an inconclusive outcome. This is one part of the list.
Lab note: compare normalized growth with 0.8, writing met if less and not met if equal or more.

Reference set, count: 4
Confirm or reject: normalized growth of COc1ccc(C(Cl)=C(c2ccc(OC)cc2)c2ccc(OC)cc2)cc1 lies strictly below 0.8
not met

Does COc1ccccc1OCCNCC(O)COc1cccc2[nH]c3ccccc3c12 (stereo unspecified) have normalized growth strictly under 0.8?
not met

normalized growth under 0.8? Item: CC/C(=C(\c1ccccc1)c1ccc(OCCN(C)C)cc1)c1ccccc1
met

Lab note: normalized growth threshold 0.8. Does this compound come in strictly under it? CC(=O)c1c(O)c(C)c(O)c2c1OC1=CC(=O)C(C(C)=O)C(=O)C12C (stereo unspecified)
met

Next:
Please let me know if CN(C)CCOc1ccc(/C(=C(/CCCl)c2ccccc2)c2ccccc2)cc1 shows normalized growth below 0.8.
met

Strictly below 0.8: is that where normalized growth of CC1(C)C(C(Cl)Cl)C2(Cl)C(Cl)C(Cl)C1(Cl)C2(Cl)Cl (stereo unspecified) sits?
not met

Lab note: confirm whether the reported normalized growth for this compound is below 0.8, equality not counting. compound: CCN(CC)CCOc1ccc(/C(=C(\Cl)c2ccccc2)c2ccccc2)cc1
met

Just wondering, is normalized growth of CN(C)CCOC(C)(c1ccccc1)c1ccccn1 (stereo unspecified) below 0.8?
not met

---

- PROTOCOL: chemical genetic growth profiling, strain panel (AID 1159580);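 further: tested at 20 µM; growth read once vehicle control cultures reached saturation at 30 °C; 1 = growth at the plate median or of vehicle wells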
- PROTOCOL CONDITIONS: S. cerevisiae deletion strains, growth OD, locus YGL078C, strain dbp3
In all, about 5,500 compounds went through this assay and about 2,000 (36%) were called active. About 18% were inconclusive and are not listed. No stated cut-off is given here; in the data, active means normalized growth mostly below about 0.91 (no sharp cut-off); inconclusive means no clear call, values can overlap the other calls; inactive means mostly above about 0.92. The list shows a part of the results.
Write down the outcome that applies. Available outcomes: active, inactive

Worked examples follow.
GET /call?item= COc1cc(OC)c2c(=O)c(-c3ccccc3)c(C)oc2c1OC returns the recorded outcome of this test.
inactive

Short answer needed: outcome of this test for CCCC(C)C1(CC)C(=O)N=C(S)NC1=O (configuration not stated) ?
active

Per the records of this test, what outcome belongs to C=CC(C)(O)CC/C=C(\C)CCC=C(C)C (configuration not stated) ?
inactive

Record request — test call for O=c1[nH]c(=O)n(C2C[C@@H](O)[C@@H](CO)O2)cc1F (some centres not stated)
inactive

Each compound tested received a call. Report the one for Nc1nc2c(ncn2C2C[C@H](O)[C@@H](CO)O2)c(=O)[nH]1 (some centres not stated) .
inactive

---
Outcome? CC(=O)OCC1(C)CCC2(C)CCC3(C)C4=CCc5c(cc(OC(C)=O)c(OC(C)=O)c5C)C4(C)CCC3(C)C2C1 (configuration not stated)
inactive

Could you check what this test reported for CCCC(C)C1(CC)C(=O)NC(=O)NC1=O (configuration not stated) ?
inactive

Please let me know the test result on file for Nc1ncnc2c1ncn2C1O[C@H](COP(=O)(O)O)[C@@H](O)[C@H]1O (some centres not stated) .
inactive
